Cited source: patent US20260193236A1

System: IRE1-XBP1s (XBP1-RLuc splicing reporter in HEK293 T-REx cells)
Assay: IRE1-XBP1s activation assay (XBP1-RLuc splicing reporter, HEK293 T-REx cells, luminescence relative to thapsigargin)
Type: cell-based
Settings: 18 h, compound 10 μM, HEK293 T-REx XBP1-RLuc reporter cells, relative to thapsigargin (Tg) 500 nM, read-out: Activity (IRE1-XBP1s activation, luminescence as % signal relative to thapsigargin, % Tg)
Property: activation at 10 µM; scope: individual compounds
outcomeMeasure: activation at 10 µM

                                   compound  observedvalue
0  Cc1ccc(OCCN(C)C(=O)Cn2cc(NC(=O)C(C)(C)CNc3ccc(F)nc3C)cn2)cc1 [Compound 221]          < 30%
1  Cc1ccc(OCCN(C)C(=O)Cn2cc(NC(=O)CCNc3ncc(C#N)cn3)cn2)cc1 [Compound 125]          < 30%
2  Cc1ccc(OCC(C)(C)N(C)C(=O)Cn2cc(NC(=O)CCNc3ccnc(F)n3)cn2)cc1 [Compound 256]          > 50%
3  Cc1ccc(OCCC(=O)Nc2cnn(CC(=O)N(C)CCOc3cccc(OC(F)(F)F)c3)c2)c(F)c1 [Compound 69]          < 30%
4  [2H]C([2H])([2H])c1ccc(OCCN(C)C(=O)Cn2cc(NC(=O)CCOc3ccc(C)cc3F)cn2)cc1 [Compound 91]      30 to 50%
5  COc1ccc(OCCN(C)C(=O)Cn2cc(NC(=O)CCNc3ccnc(OC)c3)cn2)cc1 [Compound 169]          > 50%
6  Cc1ccc(OCCN(C)C(=O)Cn2cc(NC(=O)CCNc3cccc(Cl)n3)cn2)cc1 [Compound 156]          > 50%
7  Cc1ccc(OCCN(C)C(=O)Cn2cc(NC(=O)C3(CNc4ccc(F)nc4C)CC3)cn2)cc1 [Compound 293]          < 30%

====

Test system: IRE1-XBP1s (XBP1-RLuc splicing reporter in HEK293 T-REx cells)
Test: IRE1-XBP1s activation assay (XBP1-RLuc splicing reporter, HEK293 T-REx cells, luminescence relative to thapsigargin)
Type: cell-based
Conditions: 18 h, compound 10 μM, HEK293 T-REx XBP1-RLuc reporter cells, relative to thapsigargin (Tg) 500 nM, read-out: Activity (IRE1-XBP1s activation, luminescence as % signal relative to thapsigargin, % Tg)
outcomeMeasure: activation at 10 µM

In [3]: df
Out[3]:
                                   compound                               assaytarget  observedvalue
0  Cc1ccc(OCCN(C)C(=O)Cn2cc(NC(=O)CCOc3ccc(F)cc3F)cn2)cc1 [Compound 49]  IRE1-XBP1s (XBP1-RLuc splicing reporter in HEK293 T-REx cells)          > 50%
1  COc1ccc(OCCC(=O)Nc2cnn(CC(=O)N(C)CCOc3ccc(C)cc3)c2)cc1 [Compound 42]  IRE1-XBP1s (XBP1-RLuc splicing reporter in HEK293 T-REx cells)      30 to 50%
2  Cc1ccc(OCCN(C)C(=O)Cn2cc(NC(=O)C(CNc3ccc(F)nc3C)c3ccccc3)cn2)cc1 (stereo not shown) [Compound 167]  IRE1-XBP1s (XBP1-RLuc splicing reporter in HEK293 T-REx cells)          < 30%
3  COc1cc(F)ccc1OCCN(C)C(=O)Cn1cc(NC(=O)CCNc2ncccn2)cn1 [Compound 282]  IRE1-XBP1s (XBP1-RLuc splicing reporter in HEK293 T-REx cells)          < 30%
